# test.protocol: NCI Yeast Anticancer Drug Screen. Data for the mec2-1 strain (AID 157)
# run.conditions: S. cerevisiae mec2-1 strain, at 50.0 µM, hits give high values
About 79,000 compounds went through this panel and 15% of them were active in at least one assay; those are over-represented in the sample as a whole.

>  <compound>
CCC(C)(O)CCc1ccccc1 (stereo not drawn)

>  <growth inhibition, %>
-42.6

$$$$
>  <compound>
CC(C)(C)C(=O)C(c1ccc(-c2cscn2)cc1)c1ccc(-c2cscn2)cc1

>  <growth inhibition, %>
-2.8

$$$$
>  <compound>
Cc1ccnc2ccccc12

>  <growth inhibition, %>
1.55

$$$$
>  <compound>
COC(=O)C1(C)CCCC2(C)C1CCC13OC1C1(C(C)C)OC1CC23 (stereo not drawn)

>  <growth inhibition, %>
-20.6

$$$$
>  <compound>
Clc1ccccc1N=Cc1ccc(C=Nc2ccccc2Cl)cc1

>  <growth inhibition, %>
23.8

$$$$
>  <compound>
O=C(CCc1nnc2s/c(=C\c3ccccc3)c(=O)n12)Nc1cc(Cl)ccc1Cl

>  <growth inhibition, %>
-1.6

$$$$
>  <compound>
CCOC(=O)/C(C#N)=C/Nc1ccncc1

>  <growth inhibition, %>
-12.4

$$$$
>  <compound>
CSc1n[n+](-c2ccccc2)cs1

>  <growth inhibition, %>
6.15

$$$$
>  <compound>
CC(=O)Oc1c(C)n(C(C)=O)c2cc(Cl)ccc12

>  <growth inhibition, %>
-5.55

$$$$
>  <compound>
c1ccc(N=C2SC(=NNc3ccccc3)SC2=Nc2ccccc2)cc1

>  <growth inhibition, %>
6.25

$$$$
>  <compound>
CCCC1(c2ccccc2)OCC(CO)O1 (stereo not drawn)

>  <growth inhibition, %>
9.35

$$$$
>  <compound>
CCOC(=O)CNCc1cccc(Cl)c1

>  <growth inhibition, %>
28.4

$$$$
>  <compound>
COc1ccc2c(c1OC)OC1CNc3cc(C)c(C)cc3N=C1C2 (stereo not drawn)

>  <growth inhibition, %>
3.35

$$$$

====

# test.protocol: NCI Yeast Anticancer Drug Screen. Data for the cln2 rad14 strain (AID 165);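 further: 0% = growth equal to vehicle treated cultures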
# run.conditions: S. cerevisiae cln2 rad14 strain, at 50.0 µM, hits give high values
About 79,000 compounds went through this panel and 15% of them were active in at least one assay; those are over-represented in the sample as a whole.
test.readout: growth inhibition (%)

>  <molecule>
CCCCC(CC)COB(OCC(CC)CCCC)OCC(CC)CCCC (configuration not stated)

>  <test.readout>
growth inhibition

>  <uom>
%

>  <endpoint.result>
-0.8

$$$$
>  <molecule>
CC12OC(=O)C(C#N)C1(C)C1C(=O)CCCC12 (configuration not stated)

>  <test.readout>
growth inhibition

>  <uom>
%

>  <endpoint.result>
1.9

$$$$
>  <molecule>
Cc1cn(C2CC(O)C(CO)O2)c(=O)nc1N1CCCC1 (configuration not stated)

>  <test.readout>
growth inhibition

>  <uom>
%

>  <endpoint.result>
-8.55

$$$$
>  <molecule>
COC(=O)c1cc(OC)nc(Cl)n1

>  <test.readout>
growth inhibition

>  <uom>
%

>  <endpoint.result>
-37

$$$$
>  <molecule>
Cn1cnc([N+](=O)[O-])c1Sc1n[nH]c(-c2ccc(Cl)cc2)n1

>  <test.readout>
growth inhibition

>  <uom>
%

>  <endpoint.result>
21.4

$$$$
>  <molecule>
CNC(=O)n1cnc(N)n1 (tested in a mixture with another compound)

>  <test.readout>
growth inhibition

>  <uom>
%

>  <endpoint.result>
-25.3

$$$$
>  <molecule>
Cc1cc(=O)[nH]c(N/N=C/c2ccc(O)cc2)n1

>  <test.readout>
growth inhibition

>  <uom>
%

>  <endpoint.result>
2.65

$$$$
>  <molecule>
Cc1coc2c1C1OC(=O)C3(C/C=C\C(C)C2)OC13 (configuration not stated)

>  <test.readout>
growth inhibition

>  <uom>
%

>  <endpoint.result>
-6.3

$$$$
>  <molecule>
COc1cc(C=O)c([N+](=O)[O-])cc1OC

>  <test.readout>
growth inhibition

>  <uom>
%

>  <endpoint.result>
20.9

$$$$
>  <molecule>
COC1C(C(=O)O)=CC=CC1OC(C)=O (configuration not stated)

>  <test.readout>
growth inhibition

>  <uom>
%

>  <endpoint.result>
-44.1

$$$$
>  <molecule>
COc1ccc(OC)c(NC(=O)Nc2cc(Cl)ccc2C)c1

>  <test.readout>
growth inhibition

>  <uom>
%

>  <endpoint.result>
-6.1

$$$$
>  <molecule>
CN(CCSSCCN(C)/N=C/c1ccccc1)/N=C/c1ccccc1

>  <test.readout>
growth inhibition

>  <uom>
%

>  <endpoint.result>
-27.6

$$$$

====

Readings of growth inhibition for the listed compounds
# test.protocol: NCI Yeast Anticancer Drug Screen. Data for the cln2 rad14 strain (AID 165);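 further: 0% = growth equal to vehicle treated cultures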
# run.conditions: S. cerevisiae cln2 rad14 strain, at 50.0 µM, hits give high values
Compounds without any hit were thinned out: in the full panel of roughly 79,000, 15% have a hit.
test.readout: growth inhibition (%)

>  <compound>
Cc1cc2c(C(C)C)c(O)c(O)c(C=Nc3cccc(O)c3)c2c(O)c1-c1c(C)cc2c(C(C)C)c(O)c(O)c(C=Nc3cccc(O)c3)c2c1O

>  <test.readout>
growth inhibition

>  <endpoint.result>
46.1

$$$$
>  <compound>
Cc1cc(Cl)cc(C(=O)O)c1O

>  <test.readout>
growth inhibition

>  <endpoint.result>
-12.7

$$$$
>  <compound>
Cc1cc(S(=O)(=O)O)cc(C(C)(C)C)c1O

>  <test.readout>
growth inhibition

>  <endpoint.result>
6.25

$$$$
>  <compound>
NNC(=O)c1ccco1

>  <test.readout>
growth inhibition

>  <endpoint.result>
20.8

$$$$
>  <compound>
CCCOC(=O)c1ccc(C(C)C)cc1

>  <test.readout>
growth inhibition

>  <endpoint.result>
3.7

$$$$
>  <compound>
NC(=O)NC(=O)c1ccccc1

>  <test.readout>
growth inhibition

>  <endpoint.result>
-9.25

$$$$
>  <compound>
CN1CCC/C1=N\c1ncn[nH]1

>  <test.readout>
growth inhibition

>  <endpoint.result>
-65.3

$$$$
>  <compound>
O=C1NC(=O)[C@H]2C[C@H]3C(=O)NC(=O)[C@H]3[C@@H]12

>  <test.readout>
growth inhibition

>  <endpoint.result>
-11.3

$$$$
>  <compound>
CCc1ccc2oc(-c3cc(O)c(-c4nc5cc(CC)ccc5o4)cc3O)nc2c1

>  <test.readout>
growth inhibition

>  <endpoint.result>
1.1

$$$$
>  <compound>
CNC(=O)c1c(-c2ccc(F)cc2)noc1C

>  <test.readout>
growth inhibition

>  <endpoint.result>
9.05

$$$$
>  <compound>
CCC(C)C(=O)c1c(O)c(C/C=C(\C)CCC=C(C)C)c(O)c2c(C(O)CC)cc(=O)oc12 (stereo unspecified)

>  <test.readout>
growth inhibition

>  <endpoint.result>
18.1

$$$$
>  <compound>
NC(=O)C1N=NSC1NC(=O)c1ccc([N+](=O)[O-])cc1 (stereo unspecified)

>  <test.readout>
growth inhibition

>  <endpoint.result>
6.65

$$$$
>  <compound>
CC(=O)c1c(O)ccc2c1CC(CC=O)O2 (stereo unspecified)

>  <test.readout>
growth inhibition

>  <endpoint.result>
0.75

$$$$
>  <compound>
CSc1nc2c(c(=O)n1C)N=C(c1ccc(Cl)cc1)CC(c1ccccc1)N2 (stereo unspecified)

>  <test.readout>
growth inhibition

>  <endpoint.result>
11.4

$$$$
>  <compound>
Cc1c(N)nc(C(CC(N)=O)NCC(N)C(N)=O)nc1C(=O)NC(C(=O)NC(C)C(O)C(C)C(=O)NC(C(=O)NCCc1nc(-c2nc(C(=O)NCCC[S+](C)CC(N)=O)cs2)cs1)C(C)O)C(OC1OC(CO)C(O)C(O)C1OC1OC(CO)C(O)C(OC(N)=O)C1O)c1cnc[nH]1 (stereo unspecified)

>  <test.readout>
growth inhibition

>  <endpoint.result>
56.9

$$$$
>  <compound>
CCCCCCCC[n+]1cccc(C#N)c1

>  <test.readout>
growth inhibition

>  <endpoint.result>
16.7

$$$$
>  <compound>
CC(=O)CC1CCC(CC(C)=O)CC1 (stereo unspecified)

>  <test.readout>
growth inhibition

>  <endpoint.result>
-66.3

$$$$
>  <compound>
C/C=C/c1ccc2oc(-c3ccc(OC4OC(C)C(O)C(O)C4O)cc3)c(C)c2c1 (stereo unspecified)

>  <test.readout>
growth inhibition

>  <endpoint.result>
98.7

$$$$
>  <compound>
O=C(Nc1cccc2ccccc12)c1ccccc1F

>  <test.readout>
growth inhibition

>  <endpoint.result>
-2.15

$$$$
>  <compound>
O=C1OCCC1(Cc1ccc(Cl)cc1)Cc1ccc(Cl)cc1

>  <test.readout>
growth inhibition

>  <endpoint.result>
10.4

$$$$
>  <compound>
CC(O)C(=O)N1CCOCC1 (stereo unspecified)

>  <test.readout>
growth inhibition

>  <endpoint.result>
-24.9

$$$$
>  <compound>
Cc1cc(C)c(Br)c(C)c1C

>  <test.readout>
growth inhibition

>  <endpoint.result>
-53.4

$$$$
>  <compound>
CC1OC(C)(Cc2ccccc2)OC1C (stereo unspecified)

>  <test.readout>
growth inhibition

>  <endpoint.result>
-59

$$$$
>  <compound>
O=C1CC(c2ccccc2)C(c2ccccc2)C1 (stereo unspecified)

>  <test.readout>
growth inhibition

>  <endpoint.result>
4.2

$$$$
>  <compound>
CCN(CC)CCSSCCN(CC)CC

>  <test.readout>
growth inhibition

>  <endpoint.result>
-15.2

$$$$
>  <compound>
COc1c(C)cc(Cc2ccc3c(c2)OCO3)cc1C

>  <test.readout>
growth inhibition

>  <endpoint.result>
-22

$$$$
>  <compound>
CC(C)CCC[C@@H](C)[C@H]1CC[C@H]2[C@@H]3C[C@@H](O)[C@@]4(O)C[C@@H](O)CC[C@]4(C)[C@H]3CC[C@]12C

>  <test.readout>
growth inhibition

>  <endpoint.result>
-12.4

$$$$
>  <compound>
C(=C/c1ccccc1)/C=N/N1CCN(/N=C/C=C/c2ccccc2)CC1

>  <test.readout>
growth inhibition

>  <endpoint.result>
-7.1

$$$$
>  <compound>
O=c1c2ccccc2nc(-c2ccccc2Cl)n1/N=C/c1ccc(Cl)cc1Cl

>  <test.readout>
growth inhibition

>  <endpoint.result>
-3.75

$$$$
>  <compound>
CC(C)(c1ccc([N+](=O)[O-])cc1)[N+](=O)[O-]

>  <test.readout>
growth inhibition

>  <endpoint.result>
-7.4

$$$$
>  <compound>
CC(=O)OCC1OC(n2c(C)cc(C)c(C#N)c2=S)C(OC(C)=O)C(OC(C)=O)C1OC(C)=O (stereo unspecified)

>  <test.readout>
growth inhibition

>  <endpoint.result>
-14.9

$$$$
>  <compound>
CCC1CCC(=O)NC1=O (stereo unspecified)

>  <test.readout>
growth inhibition

>  <endpoint.result>
-7.75

$$$$
>  <compound>
O=C(O)c1ccc(F)cc1C(=O)O

>  <test.readout>
growth inhibition

>  <endpoint.result>
5.25

$$$$
>  <compound>
CC(=O)OC1CC2C(CCC3CC(C(C)=O)CCC32C)C2CCC(/C(C)=C/C=C(c3ccccc3)c3ccccc3)C12C (stereo unspecified)

>  <test.readout>
growth inhibition

>  <endpoint.result>
-9.4

$$$$
>  <compound>
O=C(NCCCCN1CCCC1)C(c1cc2ccccc2s1)C1CCCCC1 (stereo unspecified)

>  <test.readout>
growth inhibition

>  <endpoint.result>
4.25

$$$$
>  <compound>
CC(C)(Oc1ccc(/C=C/C(=O)c2ccccc2)cc1)C(=O)Nc1c(Cl)cccc1Cl

>  <test.readout>
growth inhibition

>  <endpoint.result>
-65.5

$$$$
>  <compound>
CCCCn1cnc2c(SCc3ccc(Cl)cc3Cl)nc(N)nc21

>  <test.readout>
growth inhibition

>  <endpoint.result>
21.2

$$$$
>  <compound>
OCCSCc1cc2c(cc1Br)OCO2

>  <test.readout>
growth inhibition

>  <endpoint.result>
19.8

$$$$
>  <compound>
CCOC(=O)CC(=O)Cc1oc2c(C(C)=O)c(O)c(C)c(O)c2c1C

>  <test.readout>
growth inhibition

>  <endpoint.result>
6.05

$$$$
>  <compound>
Cc1c(O)ccc2c1CCCC2

>  <test.readout>
growth inhibition

>  <endpoint.result>
-34.2

$$$$
>  <compound>
O=C(O)CCC1COc2ccccc2O1 (stereo unspecified)

>  <test.readout>
growth inhibition

>  <endpoint.result>
-9.5

$$$$
>  <compound>
O=C(NNc1ccccc1)NNc1ccccc1

>  <test.readout>
growth inhibition

>  <endpoint.result>
46.3

$$$$
>  <compound>
COc1ccc(/C=C2\CCN(C(C)=O)C2=O)cc1

>  <test.readout>
growth inhibition

>  <endpoint.result>
2.6

$$$$
>  <compound>
CN(C)C=Nc1cc2c(cc1Br)-c1ccccc1C2=O

>  <test.readout>
growth inhibition

>  <endpoint.result>
-0.45

$$$$
>  <compound>
CCOC(=O)C1=C(C)Oc2cc3c(cc2C1c1cc(OC)c(O)c(OC)c1)OCO3 (stereo unspecified)

>  <test.readout>
growth inhibition

>  <endpoint.result>
9.75

$$$$
>  <compound>
COc1ccc(/C(C)=N/NC(N)=S)cc1OC

>  <test.readout>
growth inhibition

>  <endpoint.result>
16

$$$$
